This collection of values is drawn from patent US7763615B2.

# key: entry, value: TGI
# Tested on: LOVO-DOX
# Assay name: cells
# Format: cell-based
# Run conditions: LOVO-DOX
Enter a number only.

Solved cases (3 shown):
Ask: Identify TGI associated with the molecule COc1c(C)cc2c(c1O)[C@@H]1C3[C@@H]4SC[C@]5(NC(C)Cc6c5[nH]c5ccccc65)C(=O)COC[C@@H](c5c6c(c(C)c(OC(C)=O)c54)OCO6)N3[C@@H](O)[C@H](C2)N1C (stereo partly shown) [Compound 43]
Reply: 1.06E−07

Ask: Identify TGI associated with the molecule COc1c(C)cc2c(c1O)[C@@H]1C3[C@@H]4SC[C@]5(NC(C)Cc6c5[nH]c5ccccc65)C(=O)COC[C@@H](c5c6c(c(C)c(OC(C)=O)c54)OCO6)N3[C@@H](O)[C@H](C2)N1C (stereo partly shown) [Compound 44]
Reply: 8.53E−07

Ask: Identify TGI associated with the molecule COc1c(C)cc2c(c1OC(=O)OC(C)(C)C)[C@@H]1C3[C@@H]4SC[C@]5(NCCc6c5[nH]c5ccccc65)C(=O)COC[C@@H](c5c6c(c(C)c(OC(C)=O)c54)OCO6)N3[C@@H](O)[C@H](C2)N1C (stereo partly shown)
Reply: 2.41E−07

Now for another entry.
Ask: Identify TGI associated with the molecule C=COC(=O)Oc1c(OC)c(C)cc2c1[C@@H]1C3[C@@H]4SC[C@]5(NCCc6c5[nH]c5ccccc65)C(=O)COC[C@@H](c5c6c(c(C)c(OC(C)=O)c54)OCO6)N3[C@@H](O)[C@H](C2)N1C (stereo partly shown)
Reply: 1.17E−07
